Test: Pharmacokinetic experiments in beagle dogs
Format: in vivo
Settings: male, dog, plasma, IV, 1 mg/kg
measurement type: AUC(0-inf) (µg·h/mL)
Expressed in µg·h/mL, but write only the number.

I have this compound here, COc1cc2c(cc1-c1cnn(C(F)F)c1)CN(C(C)C)n1cc(C(=O)O)c(=O)cc1-2 [Example 5] , and I need its recorded AUC(0-inf). 17.4

---

Test: Pharmacokinetic experiments in beagle dogs
Assay type: in vivo
Conditions: male, dog, plasma, IV, 1 mg/kg
measurement type: AUC(0-t) (µg·h/mL)
Numbers only; they are read as µg·h/mL.

Suppose we examine the molecule COc1cc2c(cc1-c1cnn(C(F)F)c1)CN(C(C)C)n1cc(C(=O)O)c(=O)cc1-2 [Example 5] ; what AUC(0-t) value has been reported? 16.9

---

System: HBV DNA replication
Test: Inhibition of HBV virus replication (HBV DNA in supernatant, qPCR) in HepG2.2.15 cells
Format: cell-based
Settings: Hepatitis B virus, 10 days treatment, supernatant day 11, qPCR
Checkbox rule: IC50 lower than 3 nM = 1.0; IC50 not lower than 3 nM = 0.0.

Criterion: IC50 strictly below 3 nM. Is it met by `COc1cc2c(cc1-c1cnn(C3CCC(F)(F)CC3)c1)CN(C(C)C)n1cc(C(=O)O)c(=O)cc1-2` ? 1.0

Hello, I'm reviewing records and need to know if IC50 of `COc1cc2c(cc1-c1cnn(C(C)C)c1)CN(C(C)(C)C)n1cc(C(=O)O)c(=O)cc1-2` is below 3 nM. Could you check? 1.0

---

Assay: Pharmacokinetic experiments in beagle dogs
Assay type: in vivo
Settings: male, dog, plasma, IV, 1 mg/kg
measurement type: Cmax (ng/mL)
Express your answer in ng/mL, writing the number without its unit.

Reported Cmax for COc1cc2c(cc1-c1cnn(C(F)F)c1)CN(C(C)C)n1cc(C(=O)O)c(=O)cc1-2 [Example 5] : what is it? 2170

---

The entries below are paired with their reported IC50.
Tested on: HBsAg secretion
Test: Inhibition of HBsAg secretion (ELISA) in HepG2.2.15 cells
Format: cell-based
Conditions: Hepatitis B virus, HepG2.2.15, read-out: Hbs Ag IC50
Provide only the numeric value, understood in nM.

Answered examples (5):
• COc1cc2c(cc1-c1cnn(C(C)C)c1)CN(C1CCC1)n1cc(C(=O)O)c(=O)cc1-2 [Example 15] = 1.83
• COc1cc2c(cc1-c1cnn(C3CCOCC3)c1)CN(C(C)C)n1cc(C(=O)O)c(=O)cc1-2 [Example 19] = 7.82
• COc1cc2c(cc1-c1cnn(C3CC(C)(C)OC(C)(C)C3)c1)CN(C(C)C)n1cc(C(=O)O)c(=O)cc1-2 [Example 8] = 6.03
• COc1cc2c(cc1-c1cnn(C(C)C)c1)CN(C(C)(C)C)n1cc(C(=O)O)c(=O)cc1-2 [Example 13] = 0.97
• COc1cc2c(cc1-c1cnn(C(F)F)c1)CN(C(C)C)n1cc(C(=O)O)c(=O)cc1-2 [Example 5] = 14.3

State the recorded IC50 for this entry: COc1cc2c(cc1-c1nccs1)CN(C(C)C)n1cc(C(=O)O)c(=O)cc1-2 [Example 3] 3.26

Given COc1cc2c(cc1-c1ccco1)CN(C(C)C)n1cc(C(=O)O)c(=O)cc1-2 [Example 1] , state its recorded IC50. 4.27

What does the record list as IC50 for COc1cc2c(cc1-c1cnn(C3CCC3)c1)CN(C(C)C)n1cc(C(=O)O)c(=O)cc1-2 [Example 17] ? 4.07

Suppose we examine the compound COc1cc2c(cc1-c1cnn(C(C)C)c1)CN(C(C)C)n1cc(C(=O)O)c(=O)cc1-2 [Example 4] ; what IC50 value has been reported? 9.6

Recorded IC50 of COc1cc2c(cc1-c1cnn(C3CC3)c1)CN(C(C)C)n1cc(C(=O)O)c(=O)cc1-2 [Example 16] , please. 6.11

---

Assay: Pharmacokinetic experiments in beagle dogs
Format: in vivo
Conditions: male, dog, plasma, PO, 5 mg/kg
measurement type: AUC(0-inf) (ng·h/mL)
# output: bare number, implied unit ng·h/mL

Entry COc1cc2c(cc1-c1cnn(C(F)F)c1)CN(C(C)C)n1cc(C(=O)O)c(=O)cc1-2 [Example 5] has what AUC(0-inf)? 66700

---

Test: Pharmacokinetic experiments in beagle dogs
Format: in vivo
Settings: male, dog, plasma, PO, 5 mg/kg
measurement type: AUC(0-t) (ng·h/mL)
Your answer should be a plain number; it is taken to be in ng·h/mL.

Given the entry `COc1cc2c(cc1-c1cnn(C(F)F)c1)CN(C(C)C)n1cc(C(=O)O)c(=O)cc1-2` , report its measured AUC(0-t). 63300

---

Tested on: HBsAg secretion
Experiment: Inhibition of HBsAg secretion (ELISA) in HepG2.2.15 cells
Assay type: cell-based
Details: Hepatitis B virus, HepG2.2.15, read-out: Hbs Ag IC50
measurement type: pIC50
Recall that pIC50 is obtained by taking minus log10 of the concentration measured in molar.

Examples from the recorded data:
* COc1cc2c(cc1-c1cccs1)CN(C(C)C)n1cc(C(=O)O)c(=O)cc1-2 [Example 2] | 8.76
* COc1cc2c(cc1-c1cnn(C3CCCC3)c1)CN(C(C)C)n1cc(C(=O)O)c(=O)cc1-2 [Example 18] | 8.43

Now let's try a different one.
Can you look up the measured pIC50 of COc1cc2c(cc1-c1cnn(C3CCC(F)(F)CC3)c1)CN(C(C)C)n1cc(C(=O)O)c(=O)cc1-2 [Example 7] for me? 8.17

---

Assay: Pharmacokinetic experiments in beagle dogs
Format: in vivo
Settings: male, dog, plasma, IV, 1 mg/kg
measurement type: clearance (mL/min/kg)
Output spec: scalar in mL/min/kg, unitless text.

// query clearance value for entry `COc1cc2c(cc1-c1cnn(C(F)F)c1)CN(C(C)C)n1cc(C(=O)O)c(=O)cc1-2` 0.955

---

Test system: HBV DNA replication
Assay: Inhibition of HBV virus replication (HBV DNA in supernatant, qPCR) in HepG2.2.15 cells
Format: cell-based
Conditions: Hepatitis B virus, 10 days treatment, supernatant day 11, qPCR
Reported pIC50 is given for each of the following molecules.
Scale: negative log10 of molar concentration, which is what pIC50 denotes.

Consider the reported pIC50 for these molecules:
* COc1cc2c(cc1-c1cnn(C3CCOCC3)c1)CN(C(C)C)n1cc(C(=O)O)c(=O)cc1-2 | 8.40
* COc1cc2c(cc1-c1cccs1)CN(C(C)C)n1cc(C(=O)O)c(=O)cc1-2 | 8.69
* COc1cc2c(cc1-c1cnn(C(F)F)c1)CN(C(C)C)n1cc(C(=O)O)c(=O)cc1-2 | 8.14

Fill blank: measured pIC50 of the molecule `COc1cc2c(cc1-c1cnn(C(C)C)c1)CN(C(C)C)n1cc(C(=O)O)c(=O)cc1-2` is ____. 8.42

Which value of pIC50 has been reported for `COc1cc2c(cc1-c1cnn(C3CC(C)(C)OC(C)(C)C3)c1)CN(C(C)C)n1cc(C(=O)O)c(=O)cc1-2` in the records? 8.20

# input molecule: `COc1cc2c(cc1-c1nccs1)CN(C(C)C)n1cc(C(=O)O)c(=O)cc1-2` ; wanted: its pIC50 8.77

Requested read-out: pIC50. Entry: `COc1cc2c(cc1-c1cnn(C3CCC3)c1)CN(C(C)C)n1cc(C(=O)O)c(=O)cc1-2` 8.55

Looking for the measured pIC50 of `COc1cc2c(cc1-c1cnn(C3CCCC3)c1)CN(C(C)C)n1cc(C(=O)O)c(=O)cc1-2` , can you help? 8.64

---

System: HBV DNA replication
Test: Inhibition of HBV virus replication (HBV DNA in supernatant, qPCR) in HepG2.2.15 cells
Type: cell-based
Settings: Hepatitis B virus, 10 days treatment, supernatant day 11, qPCR
Reported pIC50 by item:
// scale note: pIC50 = -log10(conc_M); give the bare number

- COc1cc2c(cc1-c1cnn(C3CC3)c1)CN(C(C)C)n1cc(C(=O)O)c(=O)cc1-2: 8.56
- COc1cc2c(cc1-c1ccco1)CN(C(C)C)n1cc(C(=O)O)c(=O)cc1-2: 8.57

Turning to the following compound.
Query (compound): `COc1cc2c(cc1-c1cnn(C(C)C)c1)CN(C1CCC1)n1cc(C(=O)O)c(=O)cc1-2` ; field requested: pIC50 8.68

Just for reference, patent US12128044B2 is where these values come from.
